- STUDY_TARGET: Ubiquitin carboxyl-terminal hydrolase 1/WD repeat-containing protein 48 (Homo sapiens, UniProt O94782+Q8TAF3)
- Sequence (O94782 whole entry): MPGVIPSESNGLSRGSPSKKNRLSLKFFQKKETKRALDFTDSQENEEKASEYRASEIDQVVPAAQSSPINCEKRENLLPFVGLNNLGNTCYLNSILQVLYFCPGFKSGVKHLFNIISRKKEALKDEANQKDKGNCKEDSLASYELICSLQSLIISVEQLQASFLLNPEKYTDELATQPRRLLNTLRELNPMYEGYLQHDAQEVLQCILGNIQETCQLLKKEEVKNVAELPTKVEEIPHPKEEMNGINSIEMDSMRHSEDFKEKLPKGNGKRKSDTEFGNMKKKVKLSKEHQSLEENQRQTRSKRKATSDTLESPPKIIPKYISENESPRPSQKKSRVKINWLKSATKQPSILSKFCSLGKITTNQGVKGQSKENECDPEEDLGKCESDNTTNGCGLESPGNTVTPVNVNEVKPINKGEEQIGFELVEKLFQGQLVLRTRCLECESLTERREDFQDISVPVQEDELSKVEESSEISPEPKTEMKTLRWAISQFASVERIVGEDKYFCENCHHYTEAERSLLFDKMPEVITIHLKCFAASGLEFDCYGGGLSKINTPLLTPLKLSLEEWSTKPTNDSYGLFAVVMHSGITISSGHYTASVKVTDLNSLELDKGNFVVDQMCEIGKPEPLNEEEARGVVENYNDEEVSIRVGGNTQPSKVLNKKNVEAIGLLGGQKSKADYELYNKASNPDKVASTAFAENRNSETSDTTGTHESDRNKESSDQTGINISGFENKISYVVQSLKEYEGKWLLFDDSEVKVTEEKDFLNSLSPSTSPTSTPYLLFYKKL
- Sequence (Q8TAF3 whole entry): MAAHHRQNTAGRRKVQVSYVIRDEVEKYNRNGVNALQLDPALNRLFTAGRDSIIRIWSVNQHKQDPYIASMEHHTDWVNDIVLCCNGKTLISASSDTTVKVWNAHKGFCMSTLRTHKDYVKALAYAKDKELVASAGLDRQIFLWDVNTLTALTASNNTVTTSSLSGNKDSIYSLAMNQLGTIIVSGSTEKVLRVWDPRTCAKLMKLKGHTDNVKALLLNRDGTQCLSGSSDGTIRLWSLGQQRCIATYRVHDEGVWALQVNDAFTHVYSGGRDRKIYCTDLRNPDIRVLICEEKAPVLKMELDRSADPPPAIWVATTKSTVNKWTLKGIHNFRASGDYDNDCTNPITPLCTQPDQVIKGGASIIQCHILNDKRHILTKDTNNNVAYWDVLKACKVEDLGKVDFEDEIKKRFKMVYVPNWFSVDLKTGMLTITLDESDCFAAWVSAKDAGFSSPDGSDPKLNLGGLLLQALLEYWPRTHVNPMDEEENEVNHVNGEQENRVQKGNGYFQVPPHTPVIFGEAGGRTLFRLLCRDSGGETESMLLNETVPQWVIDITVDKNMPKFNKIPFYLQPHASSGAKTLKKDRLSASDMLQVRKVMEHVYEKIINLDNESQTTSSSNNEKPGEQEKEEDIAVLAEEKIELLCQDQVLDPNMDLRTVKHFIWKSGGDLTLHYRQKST
- ASSAY_PROTOCOL: In Vitro USP1  Inhibitory Activity
REPORTED_ENDPOINT: IC50 (nM)

1: COc1ncnc(C2CC2)c1-c1ncc2c(n1)N(Cc1ccc(-c3ccccn3)cc1)CCO2
2: COC(=O)Cc1cnc(-c2ccccc2C(C)C)nc1NCc1ccc(-c2nc(C(F)(F)F)cn2C)cc1
3: COc1cc(-c2nc(C(F)(F)F)cn2C)ccc1CNc1nc(-c2c(OC)ncnc2C2CC2)nc2ccoc12
4: COc1cc(CNc2nc(-c3c(OC)ncnc3C3CC3)nc3ccoc23)ccc1-n1nc(C(F)(F)F)cc1C
[in] Arrange the above in rising order of IC50. Returns: the labels arranged in the requested order.
[out] 2, 3, 4, 1
(2: 1.3 nM, 3: 7.6 nM, 4: 13 nM, 1: 35 nM)

a: COc1cnc(-c2c(OC)ncnc2C2CC2)nc1NCC12C3C4C1C1C2C3C41c1nc(C(F)(F)F)cn1C1CC1 (configuration not stated)
b: COc1ncnc(C2CC2)c1-c1nc(NCc2ccc(-n3nc(C(F)(F)F)cc3C)cc2)c2occc2n1
c: COc1cnc(-c2cccnc2C(C)C)nc1NCc1ccc(-c2nc(C(F)(F)F)cn2C)cc1
[in] Ordering: ascending IC50. Returns: the labels arranged in the requested order.
[out] a, c, b
